Provenance of the data: the supplement of paper PMC12645437

Measured Target: T1, CRBN, Q96SW2;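 note: pooled lentiviral library of zinc finger degron-EGFP fusions in mCherry-positive Jurkat cells, FACS-sorted after compound exposure, with degron abundance counted by next-generation sequencing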
T1 chain: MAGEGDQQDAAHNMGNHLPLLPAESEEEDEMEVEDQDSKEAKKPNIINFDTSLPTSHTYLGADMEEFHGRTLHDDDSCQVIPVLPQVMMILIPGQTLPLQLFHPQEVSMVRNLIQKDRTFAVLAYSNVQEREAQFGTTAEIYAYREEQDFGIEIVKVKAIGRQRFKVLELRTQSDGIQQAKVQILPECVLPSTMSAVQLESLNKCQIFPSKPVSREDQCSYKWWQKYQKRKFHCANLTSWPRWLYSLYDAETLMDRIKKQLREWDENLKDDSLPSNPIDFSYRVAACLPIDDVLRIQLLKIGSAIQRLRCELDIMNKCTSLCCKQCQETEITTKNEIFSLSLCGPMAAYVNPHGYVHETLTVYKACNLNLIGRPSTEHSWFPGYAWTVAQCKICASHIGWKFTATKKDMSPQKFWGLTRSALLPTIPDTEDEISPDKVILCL
Measurement Description: log2 fold change of degron read counts, EGFP-low vs EGFP+ sorted cells (limma voom), compound-induced degradation; higher = more compound-induced degradation of the degron-EGFP fusion; degrons are variants of IKZF1/3 zinc finger 2; compound dose not given here
Measurement Context: Jurkat; 18 h; compound: compound 33 (diphenyl IMiD analogue)
In all, about 8,300 sequences were measured (“log2 fold change of degron read counts, EGFP-low vs EGFP+ sorted cells (limma voom), compound-induced degradation”: median about -1.1, highest 2% from about 3.2 on). Many of the other results were omitted from the sample, so the highest values are more common in it than they were.
Give Met when the value for log2 fold change of degron read counts is at least 2. Give Not met when it is less.

# Sequence Content, Answer Label
measured = [
    ("FMCPQCGAEFTQKGNLLRHIKL [46F_47M_49P_50Q_52G_53A_54E_55F_67L_, Q9UKT9]", "Not met"),
    ("FACPICGASFTQKGNLLRHIKL [46F_47A_49P_50I_52G_53A_54S_55F_67L_, Q9UKT9]", "Not met"),
    ("FECPICGASFTQKGNLLRHIKL [46F_47E_49P_50I_52G_53A_54S_55F_67L_, Q9UKT9]", "Met"),
    ("FCCPICGASFTQKGNLLRHIKL [46F_47C_49P_50I_52G_53A_54S_55F_67L_, Q9UKT9]", "Met"),
    ("FCCEICGRVFTQKGNLLRHIKL [46F_47C_49E_50I_52G_53R_54V_55F_67L_, Q9UKT9]", "Not met"),
    ("FSCPICGASFTQKGNLLRHIKL [46F_47S_49P_50I_52G_53A_54S_55F_67L_, Q9UKT9]", "Met"),
    ("FWCDICGATFTQKGNLLRHIKL [46F_47W_49D_50I_52G_53A_54T_55F_67L_, Q9UKT9]", "Not met"),
    ("FTCEQCGATFTQKGNLLRHIKL [46F_47T_49E_50Q_52G_53A_54T_55F_67L_, Q9UKT9]", "Not met"),
    ("FCCNICGASFTQKGNLLRHIKL [46F_47C_49N_50I_52G_53A_54S_55F_67L_, Q9UKT9]", "Not met"),
    ("FLCDICGACFTQKGNLLRHIKL [46F_47L_49D_50I_52G_53A_54C_55F_67L_, Q9UKT9]", "Not met"),
    ("FMCPICGASFTQKGNLLRHIKL [46F_47M_49P_50I_52G_53A_54S_55F_67L_, Q9UKT9]", "Met"),
    ("FKCNQCGRHFTQKGNLLRHIKL [46F_47K_49N_50Q_52G_53R_54H_55F_67L_, Q9UKT9]", "Not met"),
    ("LDCEICGFNCTQKGNLLRHIKL [46L_47D_49E_50I_52G_53F_54N_55C_67L_, Q9UKT9]", "Not met"),
    ("FVCNICGACFTQKGNLLRHIKL [46F_47V_49N_50I_52G_53A_54C_55F_67L_, Q9UKT9]", "Not met"),
]
